# subject.of.test: N-type Ca^2+ Channel (Homo sapiens)
# Construct: host or cells: IMR-32 cells differentiated with dibutyryl cAMP and bromodeoxyuridine
# measurement.protocol: Measurement of N-type Ca2+ channel blocking potencies in IMR-32 cells using the fluorescent Ca2+ indicator Indo-1
# Assay type: cell-based
# settings: IMR-32 cells, K+ depolarization, 5 μM nitrendipine to block L-type channels; read-out: IMR 32 IC50
reported.metric: IC50 (nM)

Here's what some known entries look like.
> print(dat)
                                   compound  reported.metric  readout.units  value.measured
1  CC(C)CCN(C)[C@@H](CC(C)C)C(=O)N[C@@H](Cc1ccc(OCc2ccccc2)cc1)C(=O)NCCN1CCOCC1 (relative stereo)             IC50             nM            2100
2  CC(C)C[C@@H](C(=O)N[C@@H](Cc1ccc(OCc2ccccc2)cc1)C(=O)NC(C)(C)C)N(C)C1CCCCC1 (relative stereo)             IC50             nM             200
3  CC(C)C[C@@H](C(=O)N[C@@H](Cc1ccc(OCc2ccccc2)cc1)C(=O)NC(C)(C)C)N(C)CCC(C)O (relative stereo)             IC50             nM            2200
4  CC(C)CCN(C)[C@@H](CC(C)C)C(=O)N[C@@H](Cc1ccc(OCc2ccccc2)cc1)C(=O)N1CCC(O)CC1 (relative stereo)             IC50             nM            1100
5  CC(C)C[C@@H](C(=O)N[C@@H](Cc1ccc(OCc2ccccc2)cc1)C(=O)NC(C)(C)C)N(C)C (relative stereo)             IC50             nM            2300

(P) CC(C)CCN(C)C(CC(C)C)C(=O)NC(Cc1ccc(OCc2ccccc2)cc1)C(=O)NCCNCCO (stereo not shown)
(Q) CC(C)C[C@@H](C(=O)N[C@@H](Cc1ccc(OCc2ccccc2)cc1)C(=O)N1CCN(Cc2ccccc2)CC1)N(C)CC1CCCCC1 (relative stereo)
(R) CC(C)C[C@@H](C(=O)N[C@@H](Cc1ccc(OCc2ccccc2)cc1)C(=O)NC(C)(C)C)N(C)Cc1ccc(Br)cc1 (relative stereo)
(S) CC(C)CCN(C)[C@@H](CC(C)C)C(=O)N[C@@H](Cc1ccc(OCc2ccccc2)cc1)C(=O)NC(C)(CO)CO (relative stereo)
Please list these in order of increasing IC50. Thank you! Reply format: the labels, ordered as requested. R, Q, S, P
(R: 160 nM, Q: 500 nM, S: 1100 nM, P: 1900 nM)

----------
# subject.of.test: N-type Ca^2+ Channel (Homo sapiens, UniProt Q00975)
# Construct: host or cells: IMR-32 cells differentiated with dibutyryl cAMP and bromodeoxyuridine
# Sequence (Q00975 whole entry): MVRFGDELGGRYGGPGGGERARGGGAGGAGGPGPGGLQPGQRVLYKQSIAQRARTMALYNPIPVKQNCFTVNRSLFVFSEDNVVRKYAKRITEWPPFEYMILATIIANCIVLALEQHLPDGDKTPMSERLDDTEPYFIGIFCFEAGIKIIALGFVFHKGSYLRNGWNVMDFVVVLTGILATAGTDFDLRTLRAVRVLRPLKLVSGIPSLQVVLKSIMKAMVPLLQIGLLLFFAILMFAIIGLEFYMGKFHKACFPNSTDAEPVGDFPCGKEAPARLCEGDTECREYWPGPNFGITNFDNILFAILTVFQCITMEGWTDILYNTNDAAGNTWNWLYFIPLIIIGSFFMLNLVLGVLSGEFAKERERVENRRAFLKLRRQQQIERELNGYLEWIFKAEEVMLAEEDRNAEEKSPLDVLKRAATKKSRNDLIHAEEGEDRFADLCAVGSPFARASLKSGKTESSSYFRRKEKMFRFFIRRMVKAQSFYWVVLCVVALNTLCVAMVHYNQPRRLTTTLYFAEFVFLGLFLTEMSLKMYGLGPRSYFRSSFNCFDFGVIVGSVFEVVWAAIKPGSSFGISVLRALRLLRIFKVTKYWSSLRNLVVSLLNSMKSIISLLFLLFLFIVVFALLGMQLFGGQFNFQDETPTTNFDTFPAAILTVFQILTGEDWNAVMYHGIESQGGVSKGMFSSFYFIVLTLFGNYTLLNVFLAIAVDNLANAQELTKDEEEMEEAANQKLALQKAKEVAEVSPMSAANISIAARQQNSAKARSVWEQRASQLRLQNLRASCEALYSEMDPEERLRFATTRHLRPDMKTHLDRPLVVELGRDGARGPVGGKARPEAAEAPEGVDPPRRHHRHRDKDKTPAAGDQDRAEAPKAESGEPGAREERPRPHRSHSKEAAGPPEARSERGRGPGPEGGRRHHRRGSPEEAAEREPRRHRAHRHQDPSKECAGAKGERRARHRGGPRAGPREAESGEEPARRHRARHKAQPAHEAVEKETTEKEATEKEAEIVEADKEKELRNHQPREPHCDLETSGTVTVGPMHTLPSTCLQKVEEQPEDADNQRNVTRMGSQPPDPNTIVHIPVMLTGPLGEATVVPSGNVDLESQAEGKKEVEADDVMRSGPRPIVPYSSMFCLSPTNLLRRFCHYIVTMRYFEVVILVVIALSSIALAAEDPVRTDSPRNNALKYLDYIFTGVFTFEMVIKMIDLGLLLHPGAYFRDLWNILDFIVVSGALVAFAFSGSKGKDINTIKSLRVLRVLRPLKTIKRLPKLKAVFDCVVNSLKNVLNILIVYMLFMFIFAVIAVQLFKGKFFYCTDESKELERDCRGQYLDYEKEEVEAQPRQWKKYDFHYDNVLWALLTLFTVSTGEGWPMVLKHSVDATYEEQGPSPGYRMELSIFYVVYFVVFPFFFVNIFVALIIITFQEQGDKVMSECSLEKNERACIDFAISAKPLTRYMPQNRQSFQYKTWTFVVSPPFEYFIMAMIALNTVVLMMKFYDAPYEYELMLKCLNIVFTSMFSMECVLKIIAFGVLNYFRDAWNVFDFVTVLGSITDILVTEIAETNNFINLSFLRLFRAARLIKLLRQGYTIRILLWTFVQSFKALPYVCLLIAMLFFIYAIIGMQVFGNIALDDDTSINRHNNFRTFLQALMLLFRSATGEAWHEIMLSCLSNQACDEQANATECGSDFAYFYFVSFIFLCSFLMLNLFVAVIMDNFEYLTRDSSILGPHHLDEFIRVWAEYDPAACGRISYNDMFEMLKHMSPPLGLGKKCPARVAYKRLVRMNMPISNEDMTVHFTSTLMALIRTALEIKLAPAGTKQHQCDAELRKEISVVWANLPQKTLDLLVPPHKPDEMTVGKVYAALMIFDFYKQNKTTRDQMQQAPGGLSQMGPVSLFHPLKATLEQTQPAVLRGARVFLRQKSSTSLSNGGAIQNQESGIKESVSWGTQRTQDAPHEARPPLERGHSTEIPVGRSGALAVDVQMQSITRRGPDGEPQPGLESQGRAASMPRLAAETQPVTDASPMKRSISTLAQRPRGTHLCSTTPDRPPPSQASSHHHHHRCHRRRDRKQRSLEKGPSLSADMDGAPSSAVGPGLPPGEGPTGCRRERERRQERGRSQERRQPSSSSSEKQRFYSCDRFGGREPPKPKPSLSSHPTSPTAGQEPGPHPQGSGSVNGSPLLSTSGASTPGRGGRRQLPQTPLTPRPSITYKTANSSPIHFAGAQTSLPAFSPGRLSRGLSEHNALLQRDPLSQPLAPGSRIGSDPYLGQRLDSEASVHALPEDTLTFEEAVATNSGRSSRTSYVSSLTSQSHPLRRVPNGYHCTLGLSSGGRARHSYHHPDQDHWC
# Sequence (P54284 whole entry partner): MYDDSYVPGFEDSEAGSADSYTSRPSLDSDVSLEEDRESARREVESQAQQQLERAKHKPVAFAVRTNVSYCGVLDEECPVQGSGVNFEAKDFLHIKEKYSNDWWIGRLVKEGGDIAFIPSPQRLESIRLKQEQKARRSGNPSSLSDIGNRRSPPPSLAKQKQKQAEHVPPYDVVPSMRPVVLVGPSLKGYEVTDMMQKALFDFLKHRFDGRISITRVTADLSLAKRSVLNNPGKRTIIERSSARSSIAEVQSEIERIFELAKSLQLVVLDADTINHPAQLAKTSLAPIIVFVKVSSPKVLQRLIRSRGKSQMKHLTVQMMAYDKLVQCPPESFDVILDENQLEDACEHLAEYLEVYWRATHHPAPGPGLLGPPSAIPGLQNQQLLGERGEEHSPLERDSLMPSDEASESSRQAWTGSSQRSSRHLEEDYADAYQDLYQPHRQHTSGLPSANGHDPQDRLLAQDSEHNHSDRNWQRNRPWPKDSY
# Sequence (P54289 25-946 partner limits assumed): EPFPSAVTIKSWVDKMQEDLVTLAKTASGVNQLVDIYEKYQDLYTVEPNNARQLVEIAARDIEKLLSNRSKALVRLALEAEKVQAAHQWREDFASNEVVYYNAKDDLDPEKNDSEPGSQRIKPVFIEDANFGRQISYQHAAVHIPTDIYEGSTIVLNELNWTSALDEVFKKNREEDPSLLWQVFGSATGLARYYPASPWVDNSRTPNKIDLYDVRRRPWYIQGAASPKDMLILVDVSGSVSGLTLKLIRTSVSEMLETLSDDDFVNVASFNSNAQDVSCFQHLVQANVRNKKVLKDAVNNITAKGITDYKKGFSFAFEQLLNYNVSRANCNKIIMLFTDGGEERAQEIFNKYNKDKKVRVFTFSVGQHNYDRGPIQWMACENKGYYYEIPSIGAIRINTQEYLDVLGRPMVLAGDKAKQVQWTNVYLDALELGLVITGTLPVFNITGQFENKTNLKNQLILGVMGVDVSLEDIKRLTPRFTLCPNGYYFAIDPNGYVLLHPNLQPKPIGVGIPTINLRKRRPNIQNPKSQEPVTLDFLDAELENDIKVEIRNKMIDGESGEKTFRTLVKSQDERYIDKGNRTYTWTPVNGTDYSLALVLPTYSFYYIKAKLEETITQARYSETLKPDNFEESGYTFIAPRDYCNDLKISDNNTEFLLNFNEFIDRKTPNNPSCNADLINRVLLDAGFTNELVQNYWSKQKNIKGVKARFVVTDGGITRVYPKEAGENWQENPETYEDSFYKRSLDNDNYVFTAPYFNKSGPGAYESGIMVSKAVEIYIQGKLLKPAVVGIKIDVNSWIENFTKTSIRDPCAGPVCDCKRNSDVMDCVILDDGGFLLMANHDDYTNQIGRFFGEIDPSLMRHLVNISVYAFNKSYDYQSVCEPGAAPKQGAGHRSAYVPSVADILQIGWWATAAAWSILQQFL
# Sequence (P54289 947-1103 partner limits assumed): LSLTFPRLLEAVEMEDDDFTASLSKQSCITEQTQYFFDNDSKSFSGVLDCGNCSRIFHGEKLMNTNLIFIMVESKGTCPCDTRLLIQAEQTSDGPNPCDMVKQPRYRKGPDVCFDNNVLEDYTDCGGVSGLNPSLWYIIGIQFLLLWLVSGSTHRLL
# measurement.protocol: Measurement of N-type Ca2+ channel blocking potencies in IMR-32 cells using the fluorescent Ca2+ indicator Indo-1
# Format: cell-based
# settings: IMR-32 cells, 5 μM nitrendipine; Examples 116-140; read-out: IMR 32% of Blockade @
reported.metric: IC50 (µM)

Here's what some known entries look like.
> print(dat)
                                   compound  value.measured
1  CC(C)CCN(C)[C@@H](CC(C)C)C(=O)N[C@@H](Cc1ccc(OCc2ccccc2)cc1)C(=O)NCCCN1CCCC1=O (relative stereo) [Example 118]             1.9
2  CCC(CO)(CO)NC(=O)[C@H](Cc1ccc(OCc2ccccc2)cc1)NC(=O)[C@H](CC(C)C)N1CCOCC1 (relative stereo) [Example 124]             7.2
3  CC(C)CC(C(=O)NC(Cc1ccc(OCc2ccccc2)cc1)C(=O)NCCNCCO)N(C)C (centres unmarked) [Example 140]             5.1
4  CC(C)C[C@@H](C(=O)N[C@@H](Cc1ccc(OCc2ccccc2)cc1)C(=O)NC(C)(C)CO)N1CCOCC1 (relative stereo) [Example 123]              13

(1) CC(C)CC(C(=O)NC(Cc1ccc(OCc2ccccc2)cc1)C(=O)NCCN1CCOCC1)N1CCOCC1 (centres unmarked) [Example 119]
(2) CC(C)C[C@H](NC1CCOCC1)C(=O)N[C@@H](Cc1ccc(OCc2ccccc2)cc1)C(=O)NCCCn1ccnc1 (relative stereo) [Example 129]
(3) CCC(COC)NC(=O)[C@H](Cc1ccc(OCc2ccccc2)cc1)NC(=O)[C@H](CC(C)C)N(C)C (relative stereo) [Example 138]
(4) CC(C)C[C@@H](C(=O)N[C@@H](Cc1ccc(OCc2ccccc2)cc1)C(=O)NCCN1CCCC1)N1CCOCC1 (relative stereo) [Example 125]
Please list these in order of increasing IC50. Thank you! Reply format: the labels, ordered as requested. 3, 2, 4, 1
(3: 3 µM, 2: 6.3 µM, 4: 9.7 µM, 1: 18 µM)
